I'd appreciate it if you could supply inhibition of SARS-CoV-2 cytopathic effect values for the items below.
Test system: Vero E6 infected with SARS-CoV-2
method-description: inhibition of SARS-CoV-2 cytopathic effect; higher = more antiviral protection, active = above 15
applied-conditions: 100 nM; 48 h
Please respond with the number in % and leave the unit unwritten.

Fill in: inhibition of SARS-CoV-2 cytopathic effect of Nc1nc(=O)c2c([nH]1)NCC(CNc1ccc(C(=O)N[C@@H](CCC(=O)O)C(=O)O)cc1)N2C=O (some centres undefined) is ___
-0.89

Fill in: inhibition of SARS-CoV-2 cytopathic effect of Cc1nc(C)c(-c2ccc(C3CCC(CC(=O)O)CC3)cc2)nc1C(N)=O (centres undefined) is ___
0.91

Fill in: inhibition of SARS-CoV-2 cytopathic effect of C[C@H](CCC(=O)O)[C@H]1CC[C@H]2[C@@H]3[C@@H](O)C[C@@H]4C[C@H](O)CC[C@]4(C)[C@H]3CC[C@]12C is ___
3.56

Fill in: inhibition of SARS-CoV-2 cytopathic effect of Cc1ccc(-c2csc3ncnc(SCCC(=O)O)c23)cc1 is ___
-1.26

Fill in: inhibition of SARS-CoV-2 cytopathic effect of COc1cc(Cc2cnc(N)nc2N)cc(OC)c1OC is ___
-0.75

Fill in: inhibition of SARS-CoV-2 cytopathic effect of CNc1nc(NCc2ccc(NS(C)(=O)=O)cc2Cl)cc(-c2ccccn2)n1 is ___
0.48

Fill in: inhibition of SARS-CoV-2 cytopathic effect of O=c1[nH]c([C@@H]2CCCN2)nc2c1oc1ccc(Cl)cc12 is ___
1.61

Fill in: inhibition of SARS-CoV-2 cytopathic effect of CCOc1ccc(-c2ccc(Cn3c(CC(C)(C)C(=O)O)c(SC(C)(C)C)c4cc(OCc5ccc(C)cn5)ccc43)cc2)cn1 is ___
-0.84

Fill in: inhibition of SARS-CoV-2 cytopathic effect of O=C(Nc1ccc(Cl)cc1)Nc1ccc(Cl)c(Cl)c1 is ___
0.35

* * *

System: Vero E6 infected with SARS-CoV-2
method-description: inhibition of SARS-CoV-2 cytopathic effect; higher = more antiviral protection, active = above 15
applied-conditions: 833.33 nM; 48 h
measurement-type: inhibition of SARS-CoV-2 cytopathic effect (%)
Please respond with the number in % and leave the unit unwritten.

Requested read-out inhibition of SARS-CoV-2 cytopathic effect, target or system Vero E6 infected with SARS-CoV-2, entry CC[C@H](C)[C@@H]1NC(=O)[C@H](Cc2ccc(OC)cc2)NC(=O)CCCSC[C@@H](C(=O)N2CCC[C@H]2C(=O)N[C@@H](CC(C)C)C(=O)NCC(N)=O)NC(=O)[C@H](CC(N)=O)NC(=O)[C@H](CCC(N)=O)NC1=O
1.22

Requested read-out inhibition of SARS-CoV-2 cytopathic effect, target or system Vero E6 infected with SARS-CoV-2, entry CCOc1ccc(-c2ccc(Cn3c(CC(C)(C)C(=O)O)c(SC(C)(C)C)c4cc(OCc5ccc(C)cn5)ccc43)cc2)cn1
-0.16

Requested read-out inhibition of SARS-CoV-2 cytopathic effect, target or system Vero E6 infected with SARS-CoV-2, entry CCCCC(=O)N(Cc1ccc(-c2ccccc2-c2nnn[nH]2)cc1)[C@H](C(=O)O)C(C)C
0.99

Requested read-out inhibition of SARS-CoV-2 cytopathic effect, target or system Vero E6 infected with SARS-CoV-2, entry COc1ccc(-n2c(SCCCN3C(=O)c4cccc5cccc(c45)C3=O)nnc2-c2ccncc2)cc1
-0.8

Requested read-out inhibition of SARS-CoV-2 cytopathic effect, target or system Vero E6 infected with SARS-CoV-2, entry C#CCC(Cc1cnc2nc(N)nc(N)c2n1)c1ccc(C(=O)N[C@@H](CCC(=O)O)C(=O)O)cc1 (stereo partly specified) [pralatrexate]
-4.99

Requested read-out inhibition of SARS-CoV-2 cytopathic effect, target or system Vero E6 infected with SARS-CoV-2, entry c1ccc2sc(N3CCN(Cc4ccc5c(c4)OCO5)CC3)nc2c1 [2-[1-(4-piperonyl)piperazinyl]benzothiazole]
-3.68
